# Target or system: human Melanocortin-4 receptor (MC4R) (Homo sapiens (Human))
# Assay info: Functional in vitro MC4R antagonist potency assay (cAMP HTRF in CHO cells)
# Format: cell-based
# Experimental parameters: read-out: Kb (nM) Antagonist geometric mean

[
  {
    "Compound": "COc1cc([C@@H](C)C(=O)N2CC[C@]3(CCc4cc(-c5ncccn5)c(C)nc4N3)C2)c(F)cn1 [Example 29]",
    "Units label": "nM",
    "Comparison symbol": "=",
    "Kb": 12
  },
  {
    "Compound": "COc1cc([C@@H](C)C(=O)N2CC[C@@]3(CCc4cc(-c5nc(C(F)(F)F)n(C)n5)c(C)nc4N3)C2)c(Cl)cn1 (single isomer, unassigned) [Example 94]",
    "Units label": "nM",
    "Comparison symbol": "=",
    "Kb": 0.12
  },
  {
    "Compound": "Cc1nc2c(cc1-c1ncccn1)CC[C@@]1(CCN(C(=O)[C@H](C)c3cc(OC(F)(F)F)ncc3F)C1)N2 (single isomer, unassigned) [Example 76]",
    "Units label": "nM",
    "Comparison symbol": "=",
    "Kb": 9
  },
  {
    "Compound": "Cc1nc2c(cc1-c1ncccn1)CC[C@@]1(CCN(C(=O)C(C)c3ccc(OC(F)F)nc3)C1)N2 (single isomer, unassigned) [Example 6]",
    "Units label": "nM",
    "Comparison symbol": "=",
    "Kb": 8.5
  },
  {
    "Compound": "COc1cc([C@@H](C)C(=O)N2CC[C@@]3(CCc4cc(-c5ncccn5)c(C)nc4N3)C2)c(C(F)F)cn1 (single isomer, unassigned) [Example 36]",
    "Units label": "nM",
    "Comparison symbol": "=",
    "Kb": 0.19
  },
  {
    "Compound": "COc1cc([C@@H](C)C(=O)N2CC[C@@]3(CCc4ccc(C)nc4N3)C2)nc(C)n1 (single isomer, unassigned) [Example 26]",
    "Units label": "nM",
    "Comparison symbol": ">",
    "Kb": 97
  },
  {
    "Compound": "Cc1nc2c(cc1-c1cnn(C)c1)CC[C@@]1(CCN(C(=O)Cc3ccc(F)cc3)C1)N2 (stereo in doubt) [Example 89]",
    "Units label": "nM",
    "Comparison symbol": ">",
    "Kb": 40
  },
  {
    "Compound": "COc1cc([C@@H](C)C(=O)N2CC[C@@]3(CCc4ccc(C)nc4N3)C2)nc(C)n1 (single isomer, unassigned) [Example 24]",
    "Units label": "nM",
    "Comparison symbol": ">",
    "Kb": 97
  },
  {
    "Compound": "Cc1nc2c(cc1-c1ncccn1)CC[C@@]1(CCN(C(=O)C(C)c3ccc(C(F)(F)F)cc3)C1)N2 (single isomer, unassigned) [Example 8]",
    "Units label": "nM",
    "Comparison symbol": ">",
    "Kb": 95
  },
  {
    "Compound": "Cc1nc2c(cc1-c1ncccn1)CC[C@@]1(CCN(C(=O)[C@H](C)c3cc(F)c(F)c(F)c3)C1)N2 (single isomer, unassigned) [Example 55]",
    "Units label": "nM",
    "Comparison symbol": ">",
    "Kb": 95
  }
]

====

# Target or system: hMC4R (Homo sapiens (Human))
# Sequence (P32245 whole entry): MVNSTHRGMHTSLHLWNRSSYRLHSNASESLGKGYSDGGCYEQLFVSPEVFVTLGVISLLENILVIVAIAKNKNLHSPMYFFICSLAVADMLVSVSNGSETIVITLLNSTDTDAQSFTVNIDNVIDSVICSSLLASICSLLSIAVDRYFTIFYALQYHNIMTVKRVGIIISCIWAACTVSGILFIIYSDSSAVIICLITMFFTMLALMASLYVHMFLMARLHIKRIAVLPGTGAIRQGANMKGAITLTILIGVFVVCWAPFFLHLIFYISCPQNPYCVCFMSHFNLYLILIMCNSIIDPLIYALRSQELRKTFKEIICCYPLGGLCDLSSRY
# Assay info: In vitro binding affinity assay using hMC4R (radioligand competition binding, [125I]-(Nle4, D-Phe7)-α-MSH)
# Experimental parameters: geometric mean, read-out: Ki (nM) geometric mean

[
  {
    "Compound": "COc1cc([C@@H](C)C(=O)N2CC[C@@]3(CCc4cc(-c5ncccn5)c(C)nc4N3)C2)cc(OC)n1 (single isomer, unassigned)",
    "Ki": "52 nM"
  },
  {
    "Compound": "COc1cc([C@@H](C)C(=O)N2CCC3(CCc4cc(-c5cnn(C)c5)c(C)nc4N3)C2)c(F)cn1 (single isomer, unassigned) [Example 16]",
    "Ki": "0.36 nM"
  },
  {
    "Compound": "Cc1nc2c(cc1-c1cnn(C)c1)CCC1(CCN(C(=O)Cc3ccc(F)cc3)C1)N2 (single isomer, unassigned) [Example 19]",
    "Ki": "> 220 nM"
  },
  {
    "Compound": "COc1cc(OC(F)F)cc([C@@H](C)C(=O)N2CC[C@@]3(CCc4cc(-c5ncccn5)c(C)nc4N3)C2)c1 (single isomer, unassigned) [Example 62]",
    "Ki": "0.15 nM"
  }
]

====

# Target or system: hMC4R (Homo sapiens (Human))
# Assay info: In vitro binding affinity assay using hMC4R (radioligand competition binding, [125I]-(Nle4, D-Phe7)-α-MSH)
# Experimental parameters: geometric mean, read-out: Ki (nM) geometric
# Experimental: Example AA. In Vitro Binding Affinity Assay Using hMC4R The binding affinity of test compounds at the […] (hMC4R) was assessed using a radioligand competition binding assay. […] Compounds were solubilized in 100% dimethyl sulfoxide (DMSO) to a concentration of 30 mM. […] The exact concentration of radioligand used for each experiment was determined by liquid scintillation counting and adjusted if necessary. […]
Measurement type: Ki

[
  {
    "Molecule": "COc1cc([C@@H](C)C(=O)N2CC[C@@]3(CCc4cc(-c5ncccn5)c(C)nc4N3)C2)cc(OC(F)F)n1 (single isomer, unassigned)",
    "Target or system": "hMC4R (Homo sapiens (Human))",
    "Measurement type": "Ki",
    "Readout value": "28 nM"
  },
  {
    "Molecule": "Cc1nc2c(cc1-c1ncccn1)CC[C@@]1(CCN(C(=O)[C@H](C)c3ccnc(OC(F)F)c3)C1)N2 (single isomer, unassigned)",
    "Target or system": "hMC4R (Homo sapiens (Human))",
    "Measurement type": "Ki",
    "Readout value": "1.2 nM"
  },
  {
    "Molecule": "COc1cc([C@@H](C)C(=O)N2CC[C@@]3(CCc4cc(Cl)c(C)nc4N3)C2)c(F)cn1 (single isomer, unassigned)",
    "Target or system": "hMC4R (Homo sapiens (Human))",
    "Measurement type": "Ki",
    "Readout value": "> 250 nM"
  },
  {
    "Molecule": "COc1cc(CC(=O)N2CC[C@@]3(CCc4cc(-c5ncccn5)c(C)nc4N3)C2)c(F)cn1",
    "Target or system": "hMC4R (Homo sapiens (Human))",
    "Measurement type": "Ki",
    "Readout value": "3.5 nM"
  }
]

====

# Target or system: human Melanocortin-4 receptor (MC4R) (Homo sapiens (Human), UniProt P32245)
# Sequence (P32245 whole entry): as above
# Assay info: Functional in vitro MC4R antagonist potency assay (cAMP HTRF in CHO cells)
# Assay type: cell-based
# Experimental parameters: read-out: Kb (nM) Antagonist geometric mean
# Experimental: Example BB. Functional In Vitro MC4R Antagonist Potency Assay The functional in vitro antagonist potency for test compounds was determined by monitoring intracellular cyclic adenosine monophosphate (cAMP) levels in Chinese hamster ovary (CHO—) cells stably expressing the human Melanocortin-4 receptor (MC4R). […] Intracellular cAMP levels are quantitated using a homogenous assay utilizing the Homogeneous Time-Resolved Fluorescence (HTRF) technology from CisBio. […]
Documented Kb across a set of compounds

[
  {
    "Compound": "Cc1nc2c(cc1-c1ncccn1)CC[C@@]1(CCN(C(=O)[C@H](C)c3ccc(OC(F)(F)F)cc3)C1)N2 (single isomer, unassigned) [Example 49]",
    "Kb": "> 95 nM"
  },
  {
    "Compound": "COc1cc([C@@H](C)C(=O)N2CCC3(CCc4cc(-c5cnn(C)c5)c(C)nc4N3)C2)c(F)cn1 (single isomer, unassigned) [Example 17]",
    "Kb": "> 64 nM"
  },
  {
    "Compound": "COc1nccc([C@@H](C)C(=O)N2CC[C@@]3(CCc4cc(-c5ncccn5)c(C)nc4N3)C2)c1F (single isomer, unassigned) [Example 58]",
    "Kb": "> 62 nM"
  },
  {
    "Compound": "COc1cc([C@@H](C)C(=O)N2CC[C@@]3(CCc4ccc(C)nc4N3)C2)nc(C)n1 (single isomer, unassigned) [Example 25]",
    "Kb": "> 97 nM"
  }
]

====

Documented Kb across a set of molecules
# Target or system: human Melanocortin-4 receptor (MC4R) (Homo sapiens (Human))
# Assay info: Functional in vitro MC4R antagonist potency assay (cAMP HTRF in CHO cells)
# Assay type: cell-based
# Experimental parameters: human MC4R in CHO cells, cAMP HTRF, 200 nM aMSH challenge; Kb from IC50 by Leff-Dougall equation; geometric mean; read-out: Kb (nM) Antagonist geometric

[
  {
    "Molecule": "COc1cc([C@@H](C)C(=O)N2CC[C@@]3(CCc4cc(-c5cnc(C)nc5)c(C)nc4N3)C2)c(F)cn1",
    "Comparison symbol": "=",
    "Kb, nM": 40
  },
  {
    "Molecule": "COc1cc(C(C)C(=O)N2CC[C@@]3(CCc4cc(-c5nc(C(F)F)n(C)n5)c(C)nc4N3)C2)nc(C)n1 (single isomer, unassigned)",
    "Comparison symbol": "=",
    "Kb, nM": 0.5
  },
  {
    "Molecule": "COc1cc([C@@H](C)C(=O)N2CC[C@@]3(CCc4cc(-c5cnn(C)n5)c(C)nc4N3)C2)c(Cl)cn1",
    "Comparison symbol": ">",
    "Kb, nM": 1.1
  }
]

Source: patent US12187727B2
